# Tested On: T1, human CD3 (human, UniProt P07766 23-207; P09693 23-182; P04234 22-171)
# T1 construct: whole, on cells; also called CD3 on Jurkat T cells; CD3 on primary human T cells
# Procedure Details: flow competition on Jurkat, 100 nM unlabeled mAb; competitor AF488-SP34.2 20 nM
Property Label: % residual fluorescence of labeled mAb (%)
The answer is to be given in %; state only the numeric part.

- Binder: "F332-13B4 (antibody, mouse IgG2a, V domains shown, also called F332-13B4-2) VH: QVQLQQSGPELVKPGASVKISCKASGYSFTNSYVHWVKQTPGQGLEWIGWIYPGSTNIKYNEKFKGKATLTADTSSSTVYMQLSSLTSEDSAVYFCARDGSYFFDYWGQGTTLTVSS VL: DIVMSQSPSSLAVSAGEKVTMTCKSSQSLLNSRTRKNYLAWYQQKPGQSPKLLIYWASTRESGVPDRFTGSGSGTDFTLTISSVQAEDLAVYYCKQSYILRTFGGGTKLEIK"
  Property Label: "% residual fluorescence of labeled mAb"
  Assay Value: 8

Here is the next item to consider.
Entry F332-3E9 (antibody, mouse IgG2a, V domains shown, also called F332-3E9-2; F332-3E9 (12G4)) VH: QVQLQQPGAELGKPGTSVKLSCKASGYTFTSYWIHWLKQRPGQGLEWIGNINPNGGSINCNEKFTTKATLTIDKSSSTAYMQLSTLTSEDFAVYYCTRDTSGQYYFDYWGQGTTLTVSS VL: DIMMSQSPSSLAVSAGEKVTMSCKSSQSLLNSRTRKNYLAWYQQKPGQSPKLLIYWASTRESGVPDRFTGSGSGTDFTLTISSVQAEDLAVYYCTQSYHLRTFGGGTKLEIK : reported % residual fluorescence of labeled mAb = ? 11
